- Test Description: yeast TOR pathway reporter LAP4-GFP change – cell-based, cherry picks, flow cytometry, mother/daughter gates, confirmation (AID 2271);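 also: ratio of sample to DMSO plate mean so 100% equals DMSO level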
- Conditions: S. cerevisiae LAP4-GFP strain, 3 h, at 10 µM, hits give high values, 100 means same as DMSO control
Listed next: entries and their corresponding GFP response relative to DMSO.
Respond with the bare value in %.

O=C1c2ccccc2-c2onc3ccc(Oc4ccccc4)c1c23	147
COc1cccc2sc(Nc3nc(-c4ccccn4)cs3)nc12	254
C[C@]12CC[C@H]3[C@@H](CCC4=CC(=O)CC[C@@]43C)[C@@H]1CC[C@@H]2C(=O)CO	107
N=c1nc(N2CCCCC2)cc(N)n1O	101
O=c1[nH]cc(F)c(=O)[nH]1	90

Please turn your attention to the following entry.
Exercise: Would you kindly share the measured GFP response relative to DMSO for `CCCCCCCC(=O)OCC(=O)[C@@]1(O)CC[C@H]2[C@@H]3CCC4=CC(=O)CC[C@]4(C)[C@H]3[C@@H](O)C[C@@]21C` ?
Key: 94.1

====

- Tested System: Beta-2 adrenergic receptor (Homo sapiens) (UniProt P07550)
- Sequence (P07550 whole entry, looked up): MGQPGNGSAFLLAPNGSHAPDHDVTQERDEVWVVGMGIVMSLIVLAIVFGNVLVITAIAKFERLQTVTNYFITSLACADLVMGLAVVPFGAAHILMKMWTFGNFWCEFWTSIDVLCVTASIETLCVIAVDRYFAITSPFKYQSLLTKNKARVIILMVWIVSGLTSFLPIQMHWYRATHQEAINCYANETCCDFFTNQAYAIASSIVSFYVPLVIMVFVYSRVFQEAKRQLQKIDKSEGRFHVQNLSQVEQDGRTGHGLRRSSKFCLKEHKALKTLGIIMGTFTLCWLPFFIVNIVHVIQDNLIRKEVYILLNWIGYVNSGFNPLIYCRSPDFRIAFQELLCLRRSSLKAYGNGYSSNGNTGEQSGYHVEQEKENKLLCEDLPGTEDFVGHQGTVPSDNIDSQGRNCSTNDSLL
- Test Description: agonist-induced loss of surface beta2AR – cell-based, FAP fluorogen, flow cytometry, validation set, pilot screen (AID 504459);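 also: agonist-driven loss of surface beta2AR via internalization measured by FAP dye flow cytometry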
- Conditions: Am2.2-beta2AR cells, at 10 µM, hits give high values
Listed next: entries and their corresponding response.
Respond with the bare value in %.

Answered cases to consult:
COC(=O)CSc1nc2ccc(N)cc2s1	5.1
Oc1[nH]c2ccccc2c1C1=NCCCC1	17.8
CC(C)(C)C(=O)N1CCCC1C(=O)O (configuration not stated)	-4.87
CN1CCN2c3ccccc3Cc3ccccc3C2C1 (configuration not stated)	4.6
CCC[C@@H]1C[C@@H](C(=O)N[C@H]([C@@H](C)O)[C@H]2O[C@H](SC)[C@H](O)[C@@H](O)C2O)N(C)C1 (some centres not stated)	-3.92
O=C(O)C(O)c1ccccc1 (configuration not stated)	3.86
COc1ccc(-c2nc3c(=O)n(C)c(=O)[nH]c3n2CCc2ccccc2)cc1	12.6
COc1ccc2[nH]c(=O)c(CN(C(=O)c3ccco3)C(C)C)cc2c1	-2.75
Cn1c(=S)n(C)c2ccccc21	25.9
COc1ccc2c(c1O)Cc1ccccc1C2=O	0.34

Exercise: Would you kindly share the measured response for `O=C(CCCN1C(=O)/C(=C\c2cccc(Br)c2)SC1=S)Nc1cccnc1` ?
Key: 10.2

Exercise: Query `COc1ccc2cc(C(=O)Nc3ccc(S(N)(=O)=O)cc3)sc(=O)c2c1OC` next
Key: 19.2

Exercise: Query CC(C)=CC/C=C1\CCC(C(=O)O)C(C(=O)O)C1 (configuration not stated) next
Key: -0.75

Exercise: Query `Cc1cccc(C(=O)c2cccc(C)c2)c1` next
Key: -8.97

Exercise: Query Nc1nc2c(nc(SCc3ccccc3Br)n2C2OC(CO)C(O)C2O)c(=O)[nH]1 (configuration not stated) next
Key: 17.9

Exercise: Query `CC1=NS(=O)(=O)c2cc(Cl)ccc2N1` next
Key: -5.04

Exercise: Query `O=C(c1cc2cc(Br)ccc2o1)N1CCCC1` next
Key: -10.4

Exercise: Query `COC1CCN(Cc2cn(Cc3ccccc3)nc2-c2cc3ccccc3o2)CC1` next
Key: 8.96

Exercise: Query `O=C(NCc1ccco1)/C(=C\C=C\c1ccccc1)NC(=O)c1ccccc1Br` next
Key: 12.9

Exercise: Query `C[C@]12CC[C@@H]3c4ccc(O)cc4CC[C@H]3[C@@H]1CCC2=O` next
Key: -0.01

Exercise: Query COc1cccc(CC2CC(=O)N(c3ccc4c(C)cc(=O)oc4c3)C2=O)c1 (configuration not stated) next
Key: 5.39

Exercise: Query `O=C(O)c1ccc(C(=O)C(=O)c2ccccc2)cc1` next
Key: 4.67
